- experimental-target: Zap1 (UniProt P47043)
- Sequence: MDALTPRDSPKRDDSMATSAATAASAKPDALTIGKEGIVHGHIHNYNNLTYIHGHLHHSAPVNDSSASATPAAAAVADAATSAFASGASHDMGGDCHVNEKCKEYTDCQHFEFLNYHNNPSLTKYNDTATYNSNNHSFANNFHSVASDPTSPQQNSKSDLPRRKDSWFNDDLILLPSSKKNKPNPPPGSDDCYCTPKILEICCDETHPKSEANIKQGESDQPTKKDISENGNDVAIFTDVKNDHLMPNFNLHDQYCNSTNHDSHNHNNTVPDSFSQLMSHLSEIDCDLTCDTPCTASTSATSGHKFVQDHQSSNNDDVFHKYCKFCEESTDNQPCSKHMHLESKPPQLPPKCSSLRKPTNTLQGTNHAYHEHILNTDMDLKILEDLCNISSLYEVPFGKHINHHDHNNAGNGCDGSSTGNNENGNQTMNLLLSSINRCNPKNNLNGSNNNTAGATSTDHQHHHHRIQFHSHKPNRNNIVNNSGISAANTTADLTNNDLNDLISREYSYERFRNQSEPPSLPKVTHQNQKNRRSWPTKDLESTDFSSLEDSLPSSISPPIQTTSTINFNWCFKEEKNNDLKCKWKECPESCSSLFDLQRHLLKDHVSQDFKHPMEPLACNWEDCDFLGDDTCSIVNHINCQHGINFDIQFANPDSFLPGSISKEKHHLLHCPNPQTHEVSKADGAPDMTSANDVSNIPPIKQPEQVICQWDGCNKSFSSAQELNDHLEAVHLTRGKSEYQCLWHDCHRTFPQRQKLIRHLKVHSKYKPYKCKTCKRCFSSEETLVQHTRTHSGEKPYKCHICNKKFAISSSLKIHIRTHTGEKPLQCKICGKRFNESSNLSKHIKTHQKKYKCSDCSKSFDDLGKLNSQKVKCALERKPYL
- assay-info: PBM E-score (8-mer binding enrichment) (E-score (-0.5 to 0.5)); higher = stronger / more preferred TF binding
- conditions: protein concentration: 200 nM; construct: GST-full length
Over roughly 33,000 sequences, “E-score (-0.5 to 0.5)” has its median near -0.021; the highest 2% begin near 0.32. The list comes from a sample in which the highest values are over-represented; it also holds close analogues and randomly drawn sequences.
Field: class. Source value: PBM E-score. Ranges: bin 1 (below 0.08), bin 2 (0.08 to below 0.3), bin 3 (0.3 or more)

Prompt: For this sequence, which bin applies? `AAAGTGTG`
Response: bin 1

Prompt: For this sequence, which bin applies? `CCACAAAA`
Response: bin 2

Prompt: For this sequence, which bin applies? `AATAACGT`
Response: bin 1

Prompt: For this sequence, which bin applies? `CCACAGGG`
Response: bin 2

Prompt: For this sequence, which bin applies? `ACTAACCC`
Response: bin 2

Prompt: For this sequence, which bin applies? `ACCCTGCA`
Response: bin 3

Prompt: For this sequence, which bin applies? `CCACAAGC`
Response: bin 1

Prompt: For this sequence, which bin applies? `AACCTCGA`
Response: bin 3

Prompt: For this sequence, which bin applies? `AACCTCGT`
Response: bin 3

Prompt: For this sequence, which bin applies? `GATAACGC`
Response: bin 1

Prompt: For this sequence, which bin applies? `ACCCTGCC`
Response: bin 2

Prompt: For this sequence, which bin applies? `GATACTGC`
Response: bin 1

Prompt: For this sequence, which bin applies? `ACCCTGCG`
Response: bin 3

Prompt: For this sequence, which bin applies? `AATAACCT`
Response: bin 3

Prompt: For this sequence, which bin applies? `GATAACCC`
Response: bin 3
